Could you please report measured cytotoxicity at 10 µM for the items listed next?
Assay: Toxicity liver stage against HepG2, at 10uM
Format: cell-based
Set-up: test concentration 10 uM, cell line HepG2-A16-CD81EGFP
Settings: human, HepG2-A16-CD81EGFP cells; read-out: INHIBITION
Respond numerically; units are % and should not be typed.

Which measured cytotoxicity at 10 µM value corresponds to Cn1cc(CNC2CCc3ncnn3C2)c(-c2ccncc2)n1 (stereo not drawn) ?
-8.55

Which measured cytotoxicity at 10 µM value corresponds to `CCOc1cc(C)nc(N2CCN(C(=O)c3ccc[nH]3)CC2)n1` ?
-4

Which measured cytotoxicity at 10 µM value corresponds to Cc1ncc(CN2CCOC(c3ccc(-c4cnn(C)c4)cn3)C2)s1 (stereo not drawn) ?
-23

Which measured cytotoxicity at 10 µM value corresponds to COc1ncccc1C(Cc1ccsc1)NC(=O)Cn1cccnc1=O (stereo not drawn) ?
-5.47

Which measured cytotoxicity at 10 µM value corresponds to `CN(CCn1nc2ccccn2c1=O)CC(=O)N(C)C1CCCCC1` ?
-138

Which measured cytotoxicity at 10 µM value corresponds to `COCCN1C[C@@H]2CN(Cc3cccc(C)n3)C[C@@H]2C1=O` ?
6.66

Which measured cytotoxicity at 10 µM value corresponds to `Cc1ccc(CN2CCC3(CCC(=O)N3CC(=O)N(C)C)CC2)s1` ?
-2.45

Which measured cytotoxicity at 10 µM value corresponds to `CCOc1ccc(NC(=O)c2[nH]c(C)cc2C)cc1CO` ?
21.3

Which measured cytotoxicity at 10 µM value corresponds to COCC1CN(c2ncccn2)Cc2cnn(CC3CC3)c21 (stereo not drawn) ?
6.68

Which measured cytotoxicity at 10 µM value corresponds to COc1ccc(CCNC(=O)NC2CC(=O)N(c3ccccc3)C2)cc1 (stereo not drawn) ?
-48

Which measured cytotoxicity at 10 µM value corresponds to `O=C(NC1CC1)N1CC[C@H](OCC2CC2)[C@@H]1Cc1cccnc1` ?
1.36

Which measured cytotoxicity at 10 µM value corresponds to `O=c1ccc(-n2ccnc2)nn1CCNS(=O)(=O)c1ccccc1Cl` ?
-0.947

Which measured cytotoxicity at 10 µM value corresponds to O=C(CN1CCCC(c2ccn[nH]2)C1)Nc1nc2c(s1)CCC2 (stereo not drawn) ?
-42.4
